Where do the numbers come from? From patent US9096571B2.

- tested.on: human-derived 11β-HSD1 (h11β-HSD1) enzyme (Homo sapiens)
- Construct: expressed in transfected cells; host or cells: HEK-293 cells, transfected with Fugene 6
- assay.summary: Cell assay on 11β-HSD1 (HEK-293 cells overexpressing h11β-HSD1, cortisone to cortisol, cortisol ELISA)
- Format: cell-based
- measurement.context: HEK293; 10 μM compound; HEK-293 cells transfected with h11β-HSD1; read-out: hHSD1 inhibiting activity, % inhibition at 10 μM
Collected inhibition at 10 µM values appear next to each entry.
Express your answer in %, writing the number without its unit.

Previously resolved entries follow.
smiles.data: CNC(=O)c1cc(N2CCN(c3cccc(C(=O)N[C@H]4C5CC6CC4C[C@](O)(C6)C5)n3)[C@H](C)C2)ccc1OC
scale.unit: %
observed.value: 75
--
smiles.data: Cc1ccc(N2CCN(c3cccc(C(=O)N[C@H]4C5CC6CC4C[C@](O)(C6)C5)n3)CC2)nc1
scale.unit: %
observed.value: 40
--
smiles.data: C[C@@H]1CN(c2ccc(C(C)(C)O)cc2)CCN1c1cccc(C(=O)N[C@H]2C3CC4CC2C[C@](O)(C4)C3)n1
scale.unit: %
observed.value: 81

Consider the record given below.
Challenge: Form field: reported inhibition at 10 µM of CS(=O)(=O)c1ccc(N2CCN(c3cccc(C(=O)N[C@H]4C5CC6CC4C[C@](O)(C6)C5)n3)CC2)cc1
Response given: 73

###

Collected inhibition at 100 µM values appear next to each entry.
- tested.on: human-derived 11β-HSD1 (h11β-HSD1) enzyme (Homo sapiens, UniProt P28845)
- Construct: expressed in transfected cells; host or cells: HEK-293 cells, transfected with Fugene 6
- Sequence (P28845 whole entry): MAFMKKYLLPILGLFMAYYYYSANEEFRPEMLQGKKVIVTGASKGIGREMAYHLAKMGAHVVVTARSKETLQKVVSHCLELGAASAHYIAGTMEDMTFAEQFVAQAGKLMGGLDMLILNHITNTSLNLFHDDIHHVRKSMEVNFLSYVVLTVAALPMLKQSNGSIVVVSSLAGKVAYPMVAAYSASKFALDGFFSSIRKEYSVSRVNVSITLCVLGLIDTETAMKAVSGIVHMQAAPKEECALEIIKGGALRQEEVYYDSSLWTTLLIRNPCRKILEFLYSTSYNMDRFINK
- assay.summary: Cell assay on 11β-HSD1 (HEK-293 cells overexpressing h11β-HSD1, cortisone to cortisol, cortisol ELISA)
- Type: cell-based
- measurement.context: HEK293; 100 μM compound; HEK-293 cells transfected with h11β-HSD1; read-out: hHSD1 inhibiting activity, % inhibition at 100 μM
Express your answer in %, writing the number without its unit.

smiles.data: COc1ccc(N2CCN(c3cccc(C(=O)N[C@H]4C5CC6CC4C[C@](O)(C6)C5)n3)[C@H](C)C2)cn1
observed.value: 81
//
smiles.data: C[C@@H]1CN(C2CC2)CCN1c1cccc(C(=O)N[C@H]2C3CC4CC2C[C@](O)(C4)C3)n1
observed.value: 86
//
smiles.data: C[C@@H]1CN(C2CCN(S(C)(=O)=O)CC2)CCN1c1cccc(C(=O)N[C@H]2C3CC4CC2C[C@](O)(C4)C3)n1
observed.value: 78

Challenge: Form field: reported inhibition at 100 µM of Cc1ccc(N2CCN(c3cccc(C(=O)N[C@H]4C5CC6CC4C[C@](O)(C6)C5)n3)CC2)nc1
Response given: 84
